target: T1, human ANGPT2 (SPR analyte) (human, UniProt O15123 275-496, limits assumed)
T1 construct: domain: FLD domain; also called HuANGPT2; human ANGPT2 FLD domain
T1 sequence (looked up): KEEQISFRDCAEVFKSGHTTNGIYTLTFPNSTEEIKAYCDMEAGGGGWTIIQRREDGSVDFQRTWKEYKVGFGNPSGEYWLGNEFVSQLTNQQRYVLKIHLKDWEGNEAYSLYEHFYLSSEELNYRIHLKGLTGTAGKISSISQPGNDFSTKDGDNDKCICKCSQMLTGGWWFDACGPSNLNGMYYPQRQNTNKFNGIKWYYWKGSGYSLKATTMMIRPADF
assay procedure: SPR (ProteOn XPR36), antibody captured on Protein A/G, ANGPT2 as analyte, 1:1 Langmuir fit
Record form. Attribute: koff. Fill in for each entry.
Quick note: give the figure in s⁻¹, leave out the unit.

What the record says about ANGPT2-opt-13 (humanized) (antibody, human IgG1, kappa, V domains shown, also called Ang2-opt-13; ANGPT-opt-13) VH: QVQLVQSGAEVKKPGSSVKVSCKASGYIFIDYFINWVRQAPGQGLEWMGKIGPGSGSSSSNEKFKGRVTITADKSTSTAYMELSSLRSEDTAVYYCAREAFDYDGDYYGMAYWGQGTLVTVSS VL: EIVMTQSPATLSVSPGERATLSCKSSQSLLSSGNQKSFLAWYQQKPGQAPRLLIYGASTRETGIPARFSGSGSGTEFTLTISSLQSEDFAVYYCQNDHSYPITFGQGTKLEIKR : koff is 1.89e-05

What the record says about ANGPT2-opt-2 (humanized) (antibody, human IgG1, kappa, V domains shown, also called Ang2-opt-2; ANGP12-opt-2) VH: QVQLVQSGAEVKKPGSSVKVSCKASGYIFIEYFINWVRQAPGQGLEWMGKIGPGSGSSSSNEKFKGRVTITADKSTSTAYMELSSLRSEDTAVYYCAREAFDYEGDYYGMAYWGQGTLVTVSS VL: EIVMTQSPATLSVSPGERATLSCKSSQSLLASGNQKNFLAWYQQKPGQAPRLLIYGASTRESGIPARFSGSGSGTEFTLTISSLQSEDFAVYYCQNDHSYPITFGQGTKLEIKR : koff is 8.11e-05

So for MEDI3617 analog (Medimmune) (antibody, human IgG1, kappa, V domains shown, Based on the description in U.S. Pat. No. 8,507,656; also called MED3617 analog; analog of MED3617) VH: QVQLVESGGGVVQPGRSLRLSCAASGFTFTNYGMHWVRQAPGKGLEWVAVISHDGNNKYYVDSVKGRFTISRDNSKNTLYLQMNSLRAEDTAVYYCAREGIDFWSGLNWFDPWGQGTLVTVSS VL: EIVLTQSPGTLSLSPGERATLSCRASQSITGSYLAWYQQKPGQAPRLLITGASSWATGIPDRFSGSGSGTDFTLTISRLEPEDFAVYYCQQYSSSPITFGQGTRLEIKR , the logged koff turned out to be 0.0166

The binder ANGPT2-opt-1 (humanized) (antibody, human IgG1, kappa, V domains shown, also called Ang2-opt-1) VH: QVQLVQSGAEVKKPGSSVKVSCKASGYIFIDYFINWVRQAPGQGLEWMGKIGPGSGSSSSNEKFKGRVTITADKSTSTAYMELSSLRSEDTAVYYCAREAFDYEGDYYGMAYWGQGTLVTVSS VL: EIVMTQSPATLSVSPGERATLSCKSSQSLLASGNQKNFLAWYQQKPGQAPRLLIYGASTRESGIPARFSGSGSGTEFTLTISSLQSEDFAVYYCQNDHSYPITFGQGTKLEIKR showed koff equal to 4.25e-05

GET /value?item= chimeric lead CL-209881 (antibody, V domains shown, Chimeric antibody with murine variable domains; the constant regions of the tested antibody are not) VH: QVQLKQSGAELVKPGSSVKISCRASGYIFIDYFINWVKQRPGQGLEWIGKIGPGSGSSSSNEKFKGKATLTADKSSSTAYMQLSSLTSEDSAVYFCAREAFDYDGDYYGMAYWGQGTSVTVSS VL: DIVMTQSPSSLSVSAGEKVTMSCKSSQSLLNSGNQKNFLAWYQQKPGQPPKLLIYGASTRESGVPDRFTGSGSGTDFTLTITSVQAEDLAVYYCQNDHSYPITFGSGTKLEIK &field=koff returns 2.34e-05

According to the records, this binder ANGPT2-opt-31 (humanized) (antibody, human IgG1, kappa, V domains shown, also called Ang2-opt-31) VH: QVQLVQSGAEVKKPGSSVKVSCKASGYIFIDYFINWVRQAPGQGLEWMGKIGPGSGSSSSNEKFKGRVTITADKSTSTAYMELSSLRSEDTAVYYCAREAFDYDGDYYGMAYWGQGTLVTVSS VL: EIVMTQSPATLSVSPGERATLSCKSSQSLLSSGNQKSFLAWYQQKPGQAPRLLIYGASTRESGIPARFSGSGSGTEFTLTISSLQSEDFAVYYCQNDHSYPITFGQGTKLEIKR displays koff of 1.14e-05
